# System: female BALB/C mice
# Test details: In vivo imaging in mice of Fluc-mRNA LNP formulations (mRNA expression and duration)
# Test conditions: 48 h
Measured endpoint: expression amount in mice, times that of YK-417
Give bare numbers.

{"Compound": "CCCCCCCCC(CCCCCCCC)OC(=O)CCCCCN(CCO)CCN(CCO)CCCCCC(=O)OC(CCCCCCCC)CCCCCCCC [YK-401]", "Measured": 55.79}
{"Compound": "CCCCCCCCC(CCCCCCCC)COC(=O)CCCCCN(CCCO)CCN(CCCO)CCCCCC(=O)OCC(CCCCCCCC)CCCCCCCC [YK-422]", "Measured": 38.52}
{"Compound": "CCCCCCCCC(CCCCCCCC)C(=O)OCCCCCCN(CCO)CCN(CCO)CCCCCCOC(=O)C(CCCCCCCC)CCCCCCCC [YK-402]", "Measured": 49.08}

Okay, here is my list. What is expression amount in mice, times that of YK-417 for each of these?
1. CCCCCCCCC(CCCCCCCC)COC(=O)CCCCCN(CCCO)CCCN(CCCO)CCCCCC(=O)OCC(CCCCCCCC)CCCCCCCC [YK-423]
2. CCCCCCCCC(CCCCCCCC)OC(=O)CCCCCCCN(CCO)CCN(CCO)CCCCCCCC(=O)OC(CCCCCCCC)CCCCCCCC [YK-403]

1: 49.70; 2: 43.80

----------
# Test details: Detection of encapsulation efficiency, drug loading concentration and total RNA concentration (RiboGreen)
# Type: physicochemical
# Test conditions: ratio vs YK-009
Measured endpoint: drug loading concentration, times that of YK-009
One number for each entry.

Answered cases to consult:
{"Mol smiles": "CCCCCCCCC(CCCCCCCC)COC(=O)CCCCCN(CCCO)CCCN(CCCO)CCCCCC(=O)OCC(CCCCCCCC)CCCCCCCC", "Measured": 1.36}
{"Mol smiles": "CCCCCCCCC(CCCCCCCC)COC(=O)CCCCCN(CCCO)CCN(CCCO)CCCCCC(=O)OCC(CCCCCCCC)CCCCCCCC", "Measured": 1.64}
{"Mol smiles": "CCCCCCCCC(CCCCCCCC)OC(=O)CCCCCCCN(CCO)CCN(CCO)CCCCCCCC(=O)OC(CCCCCCCC)CCCCCCCC", "Measured": 1.24}
{"Mol smiles": "CCCCCCCCC(CCCCCCCC)OC(=O)CCCCCN(CCO)CCN(CCO)CCCCCC(=O)OC(CCCCCCCC)CCCCCCCC", "Measured": 1.35}

Okay, here is my list. What is drug loading concentration, times that of YK-009 for each of these?
1. CCCCCCCCC(CCCCCCCC)C(=O)OCCCCCCN(CCO)CCN(CCO)CCCCCCOC(=O)C(CCCCCCCC)CCCCCCCC
2. CCCCCCCCCCCOC(=O)CCCN(CCO)CCN(CCO)CCCCCC(=O)OC(CCCCCCCC)CCCCCCCC

[1.37, 1.30]

----------
# System: 293T cells
# Test details: Cell survival rate assay (CCK-8)
# Format: cell-based
# Test conditions: difference vs YK-416
Measured endpoint: cell survival rate higher than YK-416

Answered cases to consult:
{"Molecule": "CCCCCCCCC(CCCCCCCC)OC(=O)CCCCCCCN(CCO)CCN(CCO)CCCCCCCC(=O)OC(CCCCCCCC)CCCCCCCC [YK-403]", "cell survival rate higher than YK-416": "29.79%"}
{"Molecule": "CCCCCCCCC(CCCCCCCC)OC(=O)CCCCCN(CCO)CCN(CCO)CCCCCC(=O)OC(CCCCCCCC)CCCCCCCC [YK-401]", "cell survival rate higher than YK-416": "34.24%"}
{"Molecule": "CCCCCCCCCCCOC(=O)CCCN(CCO)CCN(CCO)CCCCCC(=O)OC(CCCCCCCC)CCCCCCCC [YK-407]", "cell survival rate higher than YK-416": "30.40%"}
{"Molecule": "CCCCCCCCC(CCCCCCCC)COC(=O)CCCCCN(CCCO)CCN(CCCO)CCCCCC(=O)OCC(CCCCCCCC)CCCCCCCC [YK-422]", "cell survival rate higher than YK-416": "29.51%"}
{"Molecule": "CCCCCCCCC(CCCCCCCC)C(=O)OCCCCCCN(CCO)CCN(CCO)CCCCCCOC(=O)C(CCCCCCCC)CCCCCCCC [YK-402]", "cell survival rate higher than YK-416": "31.73%"}

Now look at this entry.
Under 293T cells: cell survival rate higher than YK-416 value of CCCCCCCCC(CCCCCCCC)COC(=O)CCCCCN(CCCO)CCCN(CCCO)CCCCCC(=O)OCC(CCCCCCCC)CCCCCCCC [YK-423] ? 30.17%

----------
I'd appreciate it if you could supply total RNA concentration, times that of ALC-0315 values for the items below.
# Test details: Detection of encapsulation efficiency, drug loading concentration and total RNA concentration (RiboGreen)
# Type: physicochemical
# Test conditions: ratio vs ALC-0315
Numbers only.

Answered cases to consult:
{"Mol smiles": "CCCCCCCCC(CCCCCCCC)OC(=O)CCCCCN(CCO)CCN(CCO)CCCCCC(=O)OC(CCCCCCCC)CCCCCCCC", "Measured": 1.10}
{"Mol smiles": "CCCCCCCCC(CCCCCCCC)COC(=O)CCCCCN(CCCO)CCN(CCCO)CCCCCC(=O)OCC(CCCCCCCC)CCCCCCCC", "Measured": 1.21}
{"Mol smiles": "CCCCCCCCC(CCCCCCCC)COC(=O)CCCCCN(CCCO)CCCN(CCCO)CCCCCC(=O)OCC(CCCCCCCC)CCCCCCCC", "Measured": 1.08}

Okay, here is my list. What is total RNA concentration, times that of ALC-0315 for each of these?
1. CCCCCCCCCCCOC(=O)CCCN(CCO)CCN(CCO)CCCCCC(=O)OC(CCCCCCCC)CCCCCCCC
2. CCCCCCCCC(CCCCCCCC)C(=O)OCCCCCCN(CCO)CCN(CCO)CCCCCCOC(=O)C(CCCCCCCC)CCCCCCCC
3. CCCCCCCCC(CCCCCCCC)OC(=O)CCCCCCCN(CCO)CCN(CCO)CCCCCCCC(=O)OC(CCCCCCCC)CCCCCCCC

[1.08, 1.06, 1.07]

----------
# Test system: female BALB/C mice
# Test details: In vivo imaging in mice of Fluc-mRNA LNP formulations (mRNA expression and duration)
# Test conditions: 6 h
Measured endpoint: average radiation intensity, times that of ALC-0315
One number for each entry.

Answered cases to consult:
{"Molecule": "CCCCCCCCCCCOC(=O)CCCN(CCO)CCN(CCO)CCCCCC(=O)OC(CCCCCCCC)CCCCCCCC [YK-407]", "Target desc": "female BALB/C mice", "Measured": 4.76}
{"Molecule": "CCCCCCCCC(CCCCCCCC)COC(=O)CCCCCN(CCCO)CCN(CCCO)CCCCCC(=O)OCC(CCCCCCCC)CCCCCCCC [YK-422]", "Target desc": "female BALB/C mice", "Measured": 1.58}
{"Molecule": "CCCCCCCCC(CCCCCCCC)OC(=O)CCCCCCCN(CCO)CCN(CCO)CCCCCCCC(=O)OC(CCCCCCCC)CCCCCCCC [YK-403]", "Target desc": "female BALB/C mice", "Measured": 1.89}

Okay, here is my list. What is average radiation intensity, times that of ALC-0315 for each of these?
1. CCCCCCCCC(CCCCCCCC)COC(=O)CCCCCN(CCCO)CCCN(CCCO)CCCCCC(=O)OCC(CCCCCCCC)CCCCCCCC [YK-423]
2. CCCCCCCCC(CCCCCCCC)C(=O)OCCCCCCN(CCO)CCN(CCO)CCCCCCOC(=O)C(CCCCCCCC)CCCCCCCC [YK-402]
3. CCCCCCCCC(CCCCCCCC)OC(=O)CCCCCN(CCO)CCN(CCO)CCCCCC(=O)OC(CCCCCCCC)CCCCCCCC [YK-401]

[1.94, 1.75, 1.85]

----------
# Test details: Particle size and polydispersity index (PDI) of lipid nanoparticles by dynamic light scattering
# Format: physicochemical
# Test conditions: LNP formulation of the cationic lipid/DSPC/cholesterol/DMG-PEG2000 49:10:39.5:1.5, 25° C.
Measured endpoint: Particle size (nm)
Answers are plain numbers, in nm.

{"Molecule": "CCCCCCCCC(CCCCCCCC)OC(=O)CCCCCCCN(CCO)CCN(CCO)CCCCCCCC(=O)OC(CCCCCCCC)CCCCCCCC", "Quantity unit": "nm", "Particle size": 163}
{"Molecule": "CCCCCCCCC(CCCCCCCC)C(=O)OCCCCCCN(CCO)CCN(CCO)CCCCCCOC(=O)C(CCCCCCCC)CCCCCCCC", "Quantity unit": "nm", "Particle size": 155}
{"Molecule": "CCCCCCCCC(CCCCCCCC)OC(=O)CCCCCN(CCO)CCCN(CCO)CCCCCC(=O)OC(CCCCCCCC)CCCCCCCC", "Quantity unit": "nm", "Particle size": 169}
{"Molecule": "CCCCCCCCCCOC(=O)CCCN(CCO)CCCCCC(=O)OCC(CCCCCCCC)CCCCCCCC [YK-009, reference compound]", "Quantity unit": "nm", "Particle size": 189}
{"Molecule": "CCCCCC(CC)OC(=O)CCCCCCCCN(CCO)CCN(CCO)CCCCCCCCC(=O)OC(CC)CCCCC (stereo not shown)", "Quantity unit": "nm", "Particle size": 142}
{"Molecule": "CCCCCCCCCCOC(=O)CCCCCN(CCO)CCCN(CCO)CCCCCC(=O)OCC(CCCCCCCC)CCCCCCCC", "Quantity unit": "nm", "Particle size": 190}

Entry CCCCCCCCC(CCCCCCCC)COC(=O)CCCCCN(CCCO)CCCN(CCCO)CCCCCC(=O)OCC(CCCCCCCC)CCCCCCCC has what Particle size? 175
